- experimental_target: p110 γ (Mus musculus, UniProt Q9JHG7)
- Construct: endogenous in cells
- Sequence (Q9JHG7 whole entry): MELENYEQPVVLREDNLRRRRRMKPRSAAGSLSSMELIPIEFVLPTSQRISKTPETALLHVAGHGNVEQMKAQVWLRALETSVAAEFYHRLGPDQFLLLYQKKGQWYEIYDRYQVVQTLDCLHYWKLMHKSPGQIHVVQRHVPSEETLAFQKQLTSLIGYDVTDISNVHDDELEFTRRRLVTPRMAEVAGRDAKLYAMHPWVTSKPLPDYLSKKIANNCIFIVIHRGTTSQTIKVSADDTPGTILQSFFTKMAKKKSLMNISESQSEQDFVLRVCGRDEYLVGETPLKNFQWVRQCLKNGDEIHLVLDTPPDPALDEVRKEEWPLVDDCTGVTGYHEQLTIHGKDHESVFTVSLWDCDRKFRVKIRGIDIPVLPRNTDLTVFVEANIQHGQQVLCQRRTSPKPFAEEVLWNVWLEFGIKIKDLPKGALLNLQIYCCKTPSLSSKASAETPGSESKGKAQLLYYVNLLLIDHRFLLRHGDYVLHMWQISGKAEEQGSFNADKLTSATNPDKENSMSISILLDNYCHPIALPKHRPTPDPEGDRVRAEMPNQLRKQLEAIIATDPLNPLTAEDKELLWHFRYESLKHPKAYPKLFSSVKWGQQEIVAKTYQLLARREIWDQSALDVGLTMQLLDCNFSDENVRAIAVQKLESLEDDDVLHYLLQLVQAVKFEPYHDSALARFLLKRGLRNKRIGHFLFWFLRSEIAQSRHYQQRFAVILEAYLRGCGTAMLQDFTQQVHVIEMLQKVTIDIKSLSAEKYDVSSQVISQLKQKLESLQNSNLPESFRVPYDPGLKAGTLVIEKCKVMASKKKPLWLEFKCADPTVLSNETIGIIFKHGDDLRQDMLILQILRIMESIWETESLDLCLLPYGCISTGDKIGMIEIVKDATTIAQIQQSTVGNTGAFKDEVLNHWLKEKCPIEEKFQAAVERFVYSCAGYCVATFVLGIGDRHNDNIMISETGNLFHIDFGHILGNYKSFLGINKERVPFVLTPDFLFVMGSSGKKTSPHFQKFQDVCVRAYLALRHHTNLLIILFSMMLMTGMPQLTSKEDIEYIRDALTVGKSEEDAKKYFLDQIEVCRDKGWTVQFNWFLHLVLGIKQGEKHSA
- procedure_details: PI3K-γ selective cellular assay: phospho-AKT in C5a stimulated RAW264.7 macrophages
- experimental_conditions: serum-starved RAW264.7 cells stimulated with C5a
pIC50: −log10 of the molar value.
Each item that follows carries a reported pIC50.

compound | experimental_target | pIC50
CC[C@H](Nc1ncnc2[nH]cnc12)c1cc2cccc(F)c2c(=O)n1-c1ccccc1 [1 s] | p110 γ (Mus musculus, UniProt Q9JHG7) | 5.46 to 7.00
C[C@H](Nc1ncnc2[nH]cnc12)c1cc2ccc(F)c(Cl)c2c(=O)n1-c1ccccc1 [96 s] | p110 γ (Mus musculus, UniProt Q9JHG7) | 7.00 to 8.00

* * *

- experimental_target: δ PI3K (Homo sapiens)
- Sequence (O00329 whole entry, canonical isoform): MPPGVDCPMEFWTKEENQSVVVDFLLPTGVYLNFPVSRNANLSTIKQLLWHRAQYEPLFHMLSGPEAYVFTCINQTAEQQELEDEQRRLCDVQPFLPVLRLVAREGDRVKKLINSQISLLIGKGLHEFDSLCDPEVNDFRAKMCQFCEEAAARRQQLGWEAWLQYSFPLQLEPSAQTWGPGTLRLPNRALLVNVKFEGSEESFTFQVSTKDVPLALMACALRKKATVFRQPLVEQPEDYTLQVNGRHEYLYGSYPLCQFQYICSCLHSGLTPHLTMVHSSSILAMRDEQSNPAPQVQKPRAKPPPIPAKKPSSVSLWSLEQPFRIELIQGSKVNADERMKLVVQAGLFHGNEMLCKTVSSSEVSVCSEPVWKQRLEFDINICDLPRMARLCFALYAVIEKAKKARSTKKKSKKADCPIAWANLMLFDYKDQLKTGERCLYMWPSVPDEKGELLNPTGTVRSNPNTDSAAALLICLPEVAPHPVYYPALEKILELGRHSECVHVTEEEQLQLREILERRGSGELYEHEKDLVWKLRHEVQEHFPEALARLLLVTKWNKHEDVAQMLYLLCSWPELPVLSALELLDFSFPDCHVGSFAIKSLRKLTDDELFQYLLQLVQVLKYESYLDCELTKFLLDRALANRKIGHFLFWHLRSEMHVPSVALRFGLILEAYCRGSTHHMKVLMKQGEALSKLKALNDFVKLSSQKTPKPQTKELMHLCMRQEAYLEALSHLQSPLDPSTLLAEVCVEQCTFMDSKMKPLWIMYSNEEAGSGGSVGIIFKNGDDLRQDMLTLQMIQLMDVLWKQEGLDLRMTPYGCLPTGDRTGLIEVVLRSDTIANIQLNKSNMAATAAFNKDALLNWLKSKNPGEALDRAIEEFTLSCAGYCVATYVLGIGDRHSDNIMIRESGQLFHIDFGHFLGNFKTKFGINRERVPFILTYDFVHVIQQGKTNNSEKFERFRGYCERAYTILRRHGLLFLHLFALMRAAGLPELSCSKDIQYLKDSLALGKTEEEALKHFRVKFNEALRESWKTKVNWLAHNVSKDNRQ
- Sequence (P27986 whole entry partner, canonical isoform): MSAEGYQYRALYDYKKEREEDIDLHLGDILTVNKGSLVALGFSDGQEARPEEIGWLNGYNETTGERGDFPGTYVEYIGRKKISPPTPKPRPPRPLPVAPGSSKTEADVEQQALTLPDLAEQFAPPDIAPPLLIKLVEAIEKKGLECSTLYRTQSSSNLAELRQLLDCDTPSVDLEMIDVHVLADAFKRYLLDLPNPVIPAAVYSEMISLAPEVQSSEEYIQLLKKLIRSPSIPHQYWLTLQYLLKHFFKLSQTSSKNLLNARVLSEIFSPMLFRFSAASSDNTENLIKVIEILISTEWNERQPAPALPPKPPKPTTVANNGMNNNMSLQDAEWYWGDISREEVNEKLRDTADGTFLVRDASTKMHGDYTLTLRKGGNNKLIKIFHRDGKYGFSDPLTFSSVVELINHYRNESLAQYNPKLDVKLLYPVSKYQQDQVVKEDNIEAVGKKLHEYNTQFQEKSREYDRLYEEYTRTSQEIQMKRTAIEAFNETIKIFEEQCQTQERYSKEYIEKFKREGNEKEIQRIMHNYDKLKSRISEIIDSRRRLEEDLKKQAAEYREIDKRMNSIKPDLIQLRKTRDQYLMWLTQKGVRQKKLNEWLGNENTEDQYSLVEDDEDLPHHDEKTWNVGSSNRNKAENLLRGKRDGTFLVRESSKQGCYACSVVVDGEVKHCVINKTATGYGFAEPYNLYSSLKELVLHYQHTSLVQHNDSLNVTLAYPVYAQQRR
- procedure_details: PI3-Kinase Promega ADP-Glo Max assay, δ isoform
- experimental_conditions: 20 nM kinase, 3 mM ATP, 500 uM diC8-PtdInsP
Entries and their IC50 values follow.

compound | IC50
CC[C@H](Nc1ncnc2[nH]cnc12)c1cc2cccc(F)c2c(=O)n1-c1ccccc1 [1 s] | 10 to 100 nM
C[C@H](Nc1ncnc2[nH]cnc12)c1cc2ccc(F)c(Cl)c2c(=O)n1-c1ccccc1 [96 s] | 1 to 10 nM

* * *

- experimental_target: β PI3K (Homo sapiens)
- Sequence (P42338 whole entry, canonical isoform): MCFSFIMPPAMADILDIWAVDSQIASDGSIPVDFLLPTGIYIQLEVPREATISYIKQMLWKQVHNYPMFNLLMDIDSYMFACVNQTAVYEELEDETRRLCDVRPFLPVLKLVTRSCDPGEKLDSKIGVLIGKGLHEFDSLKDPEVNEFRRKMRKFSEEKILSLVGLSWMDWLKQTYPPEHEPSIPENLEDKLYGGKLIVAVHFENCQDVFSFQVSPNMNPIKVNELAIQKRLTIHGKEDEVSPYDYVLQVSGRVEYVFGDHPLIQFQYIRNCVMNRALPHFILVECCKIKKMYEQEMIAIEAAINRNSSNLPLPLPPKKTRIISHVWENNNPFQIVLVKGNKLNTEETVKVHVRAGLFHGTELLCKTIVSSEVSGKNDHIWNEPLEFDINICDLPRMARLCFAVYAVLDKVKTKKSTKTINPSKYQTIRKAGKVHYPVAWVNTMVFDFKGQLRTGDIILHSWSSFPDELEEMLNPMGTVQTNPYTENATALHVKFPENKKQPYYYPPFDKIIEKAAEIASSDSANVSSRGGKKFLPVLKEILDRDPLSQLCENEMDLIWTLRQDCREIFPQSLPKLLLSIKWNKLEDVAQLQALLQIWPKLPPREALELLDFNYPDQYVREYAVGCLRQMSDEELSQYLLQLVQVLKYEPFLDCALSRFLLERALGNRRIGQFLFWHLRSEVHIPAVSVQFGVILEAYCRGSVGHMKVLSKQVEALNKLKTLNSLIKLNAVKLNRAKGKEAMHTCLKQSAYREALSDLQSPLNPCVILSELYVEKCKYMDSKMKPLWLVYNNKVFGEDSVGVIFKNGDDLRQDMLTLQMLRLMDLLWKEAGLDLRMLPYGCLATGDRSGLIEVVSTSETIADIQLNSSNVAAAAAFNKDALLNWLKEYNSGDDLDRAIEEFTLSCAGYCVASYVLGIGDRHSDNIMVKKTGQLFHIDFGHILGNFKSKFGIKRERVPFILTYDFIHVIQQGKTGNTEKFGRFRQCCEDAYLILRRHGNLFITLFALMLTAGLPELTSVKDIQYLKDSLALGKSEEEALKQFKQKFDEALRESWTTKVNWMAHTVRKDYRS
- Sequence (P27986 whole entry partner, canonical isoform): as the sequence (P27986 whole entry partner, canonical isoform) above
- procedure_details: PI3-Kinase Promega ADP-Glo Max assay, β isoform
- experimental_conditions: 40 nM kinase, 3 mM ATP, 500 uM diC8-PtdInsP
pIC50: −log10 of the molar value.

input_smiles | pIC50
CC[C@H](Nc1ncnc2[nH]cnc12)c1cc2cccc(F)c2c(=O)n1-c1ccccc1 | 5.46 to 7.00
C[C@H](Nc1ncnc2[nH]cnc12)c1cc2ccc(F)c(Cl)c2c(=O)n1-c1ccccc1 | 5.46 to 7.00

* * *

- experimental_target: α PI3K (Homo sapiens, UniProt P42336)
- procedure_details: PI3-Kinase Promega ADP-Glo Max assay, α isoform
- experimental_conditions: 20 nM kinase, 3 mM ATP, 500 uM diC8-PtdInsP
Measured IC50, listed per entry.
assay_readout: IC50

compound | experimental_target | readout_value
CC[C@H](Nc1ncnc2[nH]cnc12)c1cc2cccc(F)c2c(=O)n1-c1ccccc1 [1 s] | α PI3K (Homo sapiens, UniProt P42336) | 3.5 to 10 µM
C[C@H](Nc1ncnc2[nH]cnc12)c1cc2ccc(F)c(Cl)c2c(=O)n1-c1ccccc1 [96 s] | α PI3K (Homo sapiens, UniProt P42336) | 0.1 to 3.5 µM
